# targetUnderTest: noradrenaline (NA) reuptake in synaptosomes (Rattus norvegicus, UniProt Q63380)
# Construct: in synaptosomes as described in WO 97/16451
# Sequence (Q63380 1-617): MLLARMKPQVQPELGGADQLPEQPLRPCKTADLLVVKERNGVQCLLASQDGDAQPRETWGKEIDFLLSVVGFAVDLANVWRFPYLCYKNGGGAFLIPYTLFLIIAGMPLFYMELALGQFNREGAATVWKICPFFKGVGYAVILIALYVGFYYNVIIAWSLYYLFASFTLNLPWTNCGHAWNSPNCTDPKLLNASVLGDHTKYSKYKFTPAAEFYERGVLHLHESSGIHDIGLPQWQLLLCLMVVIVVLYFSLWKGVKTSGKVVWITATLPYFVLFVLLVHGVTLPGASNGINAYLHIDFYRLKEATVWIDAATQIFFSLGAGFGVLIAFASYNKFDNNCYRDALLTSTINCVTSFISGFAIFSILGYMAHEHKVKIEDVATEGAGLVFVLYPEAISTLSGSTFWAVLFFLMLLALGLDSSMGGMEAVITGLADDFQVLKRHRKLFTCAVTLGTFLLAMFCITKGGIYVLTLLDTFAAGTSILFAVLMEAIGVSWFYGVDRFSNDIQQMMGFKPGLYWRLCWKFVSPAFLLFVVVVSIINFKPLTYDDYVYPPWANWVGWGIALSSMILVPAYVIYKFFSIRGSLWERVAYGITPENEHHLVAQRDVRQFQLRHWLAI
# assayDetails: biochemical
endpointLabel: pIC50
# log scale: pIC50 equals minus log10 of the concentration in mol/L

// pIC50 lookup, molecule = CCC(=O)N(CC1CCN(CCc2ccc(F)cc2)CC1)c1ccccc1 [Compound 12j] , result: 6.55

----------
# targetUnderTest: dopamine (DA) reuptake in synaptosomes (Rattus norvegicus, UniProt P23977)
# Construct: in synaptosomes as described in WO 97/16451
# Sequence (P23977 whole entry): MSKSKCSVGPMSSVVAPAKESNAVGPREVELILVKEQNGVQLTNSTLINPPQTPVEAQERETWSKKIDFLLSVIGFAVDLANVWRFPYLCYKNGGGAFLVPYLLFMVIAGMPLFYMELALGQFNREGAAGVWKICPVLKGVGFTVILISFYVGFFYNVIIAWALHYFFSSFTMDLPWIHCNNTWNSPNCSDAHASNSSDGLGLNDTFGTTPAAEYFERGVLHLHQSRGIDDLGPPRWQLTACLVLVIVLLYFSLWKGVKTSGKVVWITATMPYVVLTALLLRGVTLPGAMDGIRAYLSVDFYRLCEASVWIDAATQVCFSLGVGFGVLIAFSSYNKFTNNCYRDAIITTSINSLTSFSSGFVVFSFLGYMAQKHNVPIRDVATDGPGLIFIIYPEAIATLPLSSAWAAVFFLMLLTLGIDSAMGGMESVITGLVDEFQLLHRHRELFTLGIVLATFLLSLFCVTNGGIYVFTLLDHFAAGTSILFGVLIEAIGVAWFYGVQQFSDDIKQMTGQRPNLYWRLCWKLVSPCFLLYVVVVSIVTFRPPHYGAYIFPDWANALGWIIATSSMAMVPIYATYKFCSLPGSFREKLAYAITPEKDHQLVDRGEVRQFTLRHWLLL
# assayDetails: biochemical
endpointLabel: pIC50
Units for pIC50: none; it is -log10 of a concentration expressed in mol/L.

Documented pIC50 of CCC(=O)N(CC1CCN(CCc2ccc(F)cc2)CC1)c1ccccc1 [Compound 12j] : 6.32
